Assay: qHTS RealTime-Glo MT Cell Viability Assay in HEK293 cells - 16 hour (AID 1224872); also: nearly all actives have a fitted effect of over 50% in size
Conditions: RealTime-Glo luminescence; series mostly up to 76.8 µM
Results filed as inconclusive are left out. Active and inactive are the calls of the source. Calls follow the shape of the dose curve; as a rule, active = well fitted cell-killing curve with a large enough effect in the repeat runs; inconclusive = weak or mixed curves, or effect the other way; inactive = flat fitted curve, though single readings scatter.
Use one of these outcomes when replying: y (active), n (inactive)

COMPOUND	ASSIGNED_LABEL
CCC(=O)O	n
CC#C[C@]1(O)CC[C@H]2[C@@H]3CCC4=CC(=O)CCC4=C3[C@@H](c3ccc(N(C)C)cc3)C[C@@]21C	y
CCOC(=O)/C=C\C(=O)OCC	n
CCCCC(CC)COC(C)=O (centres undefined)	n
O=C1O[C@H](CO)[C@@H](O)[C@H](O)[C@H]1O	n

Q: Called result for NC(=O)/N=N/C(N)=O
A: n

Q: Called result for O=C(O)c1cc(-c2ccccc2)nc2ccccc12
A: n

Q: Called result for C=C(C)C(=O)OCC(CC)(COC(=O)C(=C)C)COC(=O)C(=C)C
A: n

Q: Called result for CS(=O)(=O)c1ccc([C@@H](O)[C@@H](CO)NC(=O)C(Cl)Cl)cc1
A: n

Q: Called result for CCCCCCCCCCC=CC1CC(=O)OC1=O (centres undefined)
A: n

Q: Called result for Nc1cc(-c2ccncc2)c[nH]c1=O
A: n

Q: Called result for CC(=O)Nc1ccc(C(=O)O)cc1
A: n

Q: Called result for Nc1c(S(=O)(=O)O)cc(Br)c2c1C(=O)c1ccccc1C2=O
A: n

Q: Called result for OC[C@@H](O)[C@H](O)[C@H](O)[C@@H](O)CO
A: n

Q: Called result for O=C(c1ccc(O)cc1)c1ccc(O)cc1O
A: n

Q: Called result for OCCOCCOCCOCCO
A: n

Q: Called result for CCCCCC/C=C/CCCCCCCC(=O)O
A: n

Q: Called result for CC1CC(OC(=O)c2ccccc2O)CC(C)(C)C1 (centres undefined)
A: n

Q: Called result for NCc1cccc(CN)c1
A: n

Q: Called result for Cc1cc(Cc2ccc(N)c(C)c2)ccc1N
A: n

Q: Called result for Clc1ccc(Cl)c(Cl)c1Cl
A: n

Q: Called result for CCCCNC(N)=O
A: n

Q: Called result for Cc1cc(O)cc(C)c1Cl
A: n

Q: Called result for O=S(=O)(Oc1ccc(Cl)cc1Cl)c1ccccc1
A: n

Q: Called result for O=S(=O)(O)CCS
A: n

Q: Called result for CC[Si](OC(C)=O)(OC(C)=O)OC(C)=O
A: n

* * *

Target: Bile acid receptor (Homo sapiens) (UniProt Q96RI1)
Sequence (Q96RI1 whole entry, looked up): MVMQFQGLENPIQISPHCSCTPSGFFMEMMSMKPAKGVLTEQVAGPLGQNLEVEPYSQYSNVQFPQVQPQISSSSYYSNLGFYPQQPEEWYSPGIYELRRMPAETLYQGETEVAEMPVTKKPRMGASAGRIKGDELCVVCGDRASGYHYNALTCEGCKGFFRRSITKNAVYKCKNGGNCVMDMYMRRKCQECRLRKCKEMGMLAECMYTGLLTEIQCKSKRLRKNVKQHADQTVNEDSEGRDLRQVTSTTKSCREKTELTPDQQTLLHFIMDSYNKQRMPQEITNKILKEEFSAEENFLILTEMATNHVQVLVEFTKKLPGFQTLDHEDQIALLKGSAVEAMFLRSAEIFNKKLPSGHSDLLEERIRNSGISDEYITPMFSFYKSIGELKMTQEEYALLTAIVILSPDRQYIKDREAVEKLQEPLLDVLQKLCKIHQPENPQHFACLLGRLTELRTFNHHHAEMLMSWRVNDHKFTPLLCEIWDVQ
Assay: qHTS assay to identify small molecule antagonists of the farnesoid-X-receptor (FXR) signaling pathway (AID 743217)
Details: HEK293T FXR-UAS-bla, beta-lactamase ratio, CDCA-stimulated, 16 h; series mostly up to 62.6 µM
Excerpt: U.S. Tox21 Program National Center for Advancing Translational Sciences [NCATS] NIH Chemical Genomics Center [NCGC] U.S. Environmental Protection Agency [EPA] National Institutes of Environmental Health Sciences [NIEHS] National Toxicology Program [NTP] U.S. Food and Drug Administration [FDA] Tox21 Assay Overview: The farnesoid-X-receptor (FXR), a nuclear hormone receptor, is highly expressed in liver, intestine, kidney and adrenal cortex. […]
Results filed as inconclusive are left out. Activity calls are given as the source filed them. The call rests on the fitted dose curve; in most records, active means well fitted inhibition curve with a large enough effect in the signal ratio in the repeat runs (not every such curve was filed as active); inconclusive means weak or mixed curves, or effect the other way; inactive means no such curve, though single readings can be large or run the other way; the % refers to the signal ratio.
PROPERTY_MEASURED: outcome

Here's what some known entries look like.
COMPOUND	TARGET_ENTITY	VALUE
O=Nc1ccc(O)cc1	Bile acid receptor (Homo sapiens) (UniProt Q96RI1)	inactive
CCCCOCCO	Bile acid receptor (Homo sapiens) (UniProt Q96RI1)	inactive
c1ccc2ccccc2c1	Bile acid receptor (Homo sapiens) (UniProt Q96RI1)	inactive
CCCCCCC(C)(C)S	Bile acid receptor (Homo sapiens) (UniProt Q96RI1)	inactive
CCCCOCCOCCOC(=O)CCCCC(=O)OCCOCCOCCCC	Bile acid receptor (Homo sapiens) (UniProt Q96RI1)	inactive
O=C(c1ccc(O)cc1)c1ccc(O)cc1O	Bile acid receptor (Homo sapiens) (UniProt Q96RI1)	inactive
Cc1cc(Cc2ccc(N)c(C)c2)ccc1N	Bile acid receptor (Homo sapiens) (UniProt Q96RI1)	inactive
CCCCCCOC(C)=O	Bile acid receptor (Homo sapiens) (UniProt Q96RI1)	inactive
CCCCC(CC)COC(=O)CCCCCCCC(=O)OCC(CC)CCCC (centres undefined)	Bile acid receptor (Homo sapiens) (UniProt Q96RI1)	inactive
CCOC(=O)[C@H](CCc1ccccc1)N[C@@H](C)C(=O)N1Cc2ccccc2C[C@H]1C(=O)O	Bile acid receptor (Homo sapiens) (UniProt Q96RI1)	inactive

Q: Indicate the recorded outcome value for this compound: CC1(C)CC(N=C=O)CC(C)(CN=C=O)C1 (centres undefined)
A: inactive

Q: Indicate the recorded outcome value for this compound: NCCc1ccc(O)c(O)c1
A: inactive

Q: Indicate the recorded outcome value for this compound: O=C1O[C@H](CO)[C@@H](O)[C@H](O)[C@H]1O
A: inactive

Q: Indicate the recorded outcome value for this compound: O=S(=O)(O)c1cc(S(=O)(=O)O)c2c(N=Nc3ccccc3)c(O)ccc2c1
A: inactive

* * *

Assay: qHTS RealTime-Glo MT Cell Viability Assay in HepG2 cells - 40 hour (AID 1224870); also: nearly all actives have a fitted effect of over 50% in size
Conditions: RealTime-Glo luminescence; series mostly up to 76.8 µM
Inconclusive results are not listed. Calls of active or inactive are those of the source. Calls come from the whole dose curve; as a rule, active = well fitted cell-killing curve with a large enough effect in the repeat runs; inconclusive = weak or mixed curves, or effect the other way; inactive = flat fitted curve, though single readings scatter.
PROPERTY_MEASURED: outcome

COMPOUND	outcome
Cc1cc(Cc2ccc(N)c(C)c2)ccc1N	inactive
CCOC(=O)/C=C\C(=O)OCC	inactive
Oc1ccc(OCc2ccccc2)cc1	inactive
Cc1cc(O)c2c(c1)C(=O)c1cc(O)cc(O)c1C2=O	inactive
NC(=O)NNc1ccccc1	inactive

Q: Indicate the recorded outcome value for this compound: Cc1cc(O)cc(C)c1Cl
A: inactive

Q: Indicate the recorded outcome value for this compound: C=C1C2CCC(C2)C1(C)C (stereo unspecified)
A: inactive

Q: Indicate the recorded outcome value for this compound: NS(=O)(=O)c1cc2c(cc1Cl)NC=NS2(=O)=O
A: inactive

Q: Indicate the recorded outcome value for this compound: O=C1O[C@H](CO)[C@@H](O)[C@H](O)[C@H]1O
A: inactive

Q: Indicate the recorded outcome value for this compound: O=C1CCCCC1
A: inactive

* * *

Biological target: Thyrotropin-releasing hormone receptor (Homo sapiens) (UniProt P34981)
Sequence (P34981 whole entry, looked up): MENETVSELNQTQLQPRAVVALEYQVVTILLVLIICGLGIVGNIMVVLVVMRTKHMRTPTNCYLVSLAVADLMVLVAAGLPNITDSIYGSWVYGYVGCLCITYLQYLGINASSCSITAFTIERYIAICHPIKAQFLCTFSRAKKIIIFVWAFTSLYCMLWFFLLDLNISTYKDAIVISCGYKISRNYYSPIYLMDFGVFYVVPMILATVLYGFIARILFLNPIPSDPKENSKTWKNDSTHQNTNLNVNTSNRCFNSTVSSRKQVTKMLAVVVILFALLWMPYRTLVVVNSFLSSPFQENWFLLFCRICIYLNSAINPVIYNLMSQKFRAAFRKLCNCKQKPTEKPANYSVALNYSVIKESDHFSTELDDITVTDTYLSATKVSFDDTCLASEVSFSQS
Experiment: qHTS assay to identify small molecule antagonists of the thyrotropin-releasing hormone receptor (TRHR) signaling pathway (AID 1346877)
Settings: TRHR-HEK293, TRH-induced calcium fluorescence, antagonist mode; series mostly up to 51.3 µM
Active and inactive are the calls of the source. The call rests on the fitted dose curve; in most records, active means well fitted inhibition curve with a large enough effect in the repeat runs (not every such curve was filed as active); inconclusive means weak or mixed curves; inactive means flat fitted curve, though single readings scatter.
PROPERTY_MEASURED: outcome

Here's what some known entries look like.
COMPOUND	TARGET_ENTITY	VALUE
O=C(O)c1ccc([N+](=O)[O-])cc1	Thyrotropin-releasing hormone receptor (Homo sapiens) (UniProt P34981)	inactive
Nc1cc(-c2ccncc2)c[nH]c1=O	Thyrotropin-releasing hormone receptor (Homo sapiens) (UniProt P34981)	inactive
C=C1C2CCC(C2)C1(C)C (centres undefined)	Thyrotropin-releasing hormone receptor (Homo sapiens) (UniProt P34981)	inactive
CC1(C)O[C@@H]2C[C@H]3[C@@H]4C[C@H](F)C5=CC(=O)CC[C@]5(C)[C@H]4[C@@H](O)C[C@]3(C)[C@]2(C(=O)CO)O1	Thyrotropin-releasing hormone receptor (Homo sapiens) (UniProt P34981)	inactive
O=[N+]([O-])c1cccc(Cl)c1	Thyrotropin-releasing hormone receptor (Homo sapiens) (UniProt P34981)	inactive

Q: Indicate the recorded outcome value for this compound: CCc1ccccc1O
A: inactive

Q: Indicate the recorded outcome value for this compound: Cc1cc(O)c2c(c1)C(=O)c1cc(O)cc(O)c1C2=O
A: inactive

Q: Indicate the recorded outcome value for this compound: C=CC(=O)OCCCCCCCC(C)C
A: inactive

Q: Indicate the recorded outcome value for this compound: NCc1cccc(CN)c1
A: inactive

* * *

Test: qHTS assay for identifying genotoxic compounds that show differential cytotoxicity against isogenic chicken DT40 cell lines with known DNA damage response pathways - Rad54/Ku70 mutant cell line (AID 743015); also: nearly all actives have a fitted effect of over 60% in size
Conditions: DT40 Rad54/Ku70 mutant viability, CellTiter-Glo, 40 h; series mostly up to 66.8 µM
Records with an inconclusive call do not appear. The source made the active and inactive calls. The call rests on the fitted dose curve; in most records, active means well fitted cell-killing curve with a large enough effect in the repeat runs; inconclusive means weak or mixed curves; inactive means no such curve, though single readings can be large or run the other way.
Use one of these outcomes when replying: true (active), false (inactive)

Q: Called result for CCc1ccccc1O
A: false

Q: Called result for O=[N+]([O-])c1cccc(Cl)c1
A: false

Q: Called result for O=S(=O)(Oc1ccc(Cl)cc1Cl)c1ccccc1
A: false

* * *

Experiment: qHTS assay to identify small molecule antagonists of the retinoid-related orphan receptor gamma (ROR-gamma) signaling pathway - cell viability counter screen (AID 1159520); also: nearly all actives have a fitted effect of over 50% in size
Conditions: Tet-on RORgamma CHO cells viability, ATP luminescence, 16 h; series mostly up to 92.4 µM
Inconclusive results are not listed. Active and inactive are the calls of the source. The call rests on the fitted dose curve; in most records, active means well fitted cell-killing curve with a large enough effect in the repeat runs; inconclusive means weak or mixed curves, or effect the other way; inactive means no such curve, though single readings can be large or run the other way.

STRUCTURE_STRING	outcome
Oc1c(Cl)cc(Cl)c(Cl)c1Cl	inactive
NCc1cccc(CN)c1	inactive
COCC(=O)O	inactive
